So I've got a bunch of compounds here, and I need their Kd values.
Returns: string containing the numeric result and its unit.

For Cc1cn([C@H]2C[C@H](O)[C@@H](COP(=O)(O)OP(=O)(O)OP(=O)(O)O)O2)c(=O)[nH]c1=O [dTTP] on HIV-1 RT (Human immunodeficiency virus type 1 group M subtype B), measured Kd was 3.4 µM

Summary line: O=c1ccn([C@H]2C[C@H](O)[C@@H](COP(=O)(O)OP(=O)(O)OP(=O)(O)O)O2)c(=O)[nH]1 [dUTP] , HIV-1 RT (Human immunodeficiency virus type 1 group M subtype B), reported Kd = 5.1 µM

Data provenance: patent US9289445B2
